Tested on: HeLa
Assay: In vitro anticellular activity expressed as inhibitory concentration for the growth of HeLa S3 cells for a period of 72 hour
Type: functional, cell-based
Details: Homo sapiens
Threshold check on IC50: strictly below 2 nM is rule met; on or above 2 nM is rule not met.

Consider the following illustrative entries.
* COC(=O)c1c(C)[nH]c2c1[C@@]13C[C@@H]1CN(C(=O)c1cc4cc(OC)c(OC)c(OC)c4[nH]1)C3=CC2=O | rule met
* COC(=O)c1c(C)[nH]c2c1C1C(=CC2OC(=O)N(C)C)N(C(=O)/C=C/c2ccc(OC)c(OCC(=O)O)c2)C[C@H]1CBr (stereo partly specified) | rule not met
* COC(=O)c1c(C)[nH]c2c1[C@@]13C[C@@H]1CN(C(=O)/C=C/c1ccc(OC)c(OCC(=O)OC(C)(C)C)c1)C3=CC2=O | rule not met

Kindly consider the entry below.
# input Item COC(=O)c1c(C)[nH]c2c1[C@@]13C[C@@H]1CN(C(=O)/C=C/c1ccc(O)cc1)C3=CC2=O : IC50 beneath 2 nM, strictly?
# output rule not met

====

Tested on: HeLa
Assay: In vitro anticellular activity expressed as inhibitory concentration for the growth of HeLa S3 cells for a period of 72 hour
Format: functional, cell-based
Conditions: Homo sapiens
pIC50: −log10 of the molar value.
Please note: Met applies when pIC50 is 8 or greater, and Not met applies otherwise.

# count of solved cases: 5
- COC(=O)COc1cc(/C=C/C(=O)N2C[C@H]3C[C@@]34C2=CC(=O)c2[nH]c(C)c(C(=O)OC)c24)ccc1OC: Met
- COC(=O)c1c(C)[nH]c2c1[C@@]13C[C@@H]1CN(C(=O)/C=C/c1ccc(OC)cc1)C3=CC2=O: Met
- COC(=O)c1c(C)[nH]c2c1C1C(=CC2OC(=O)N2CCN(C)CC2)N(C(=O)/C=C/c2ccc(OC)c(N)c2)C[C@H]1CBr.Cl (some centres not stated): Not met
- COC(=O)c1c(C)[nH]c2c1C1C(=CC2OC(=O)N2CCC(N3CCCCC3)CC2)N(C(=O)/C=C/c2ccc(OC)cc2)C[C@H]1CBr.Cl (some centres not stated): Not met
- COC(=O)c1c(C)[nH]c2c1C1C(=CC2OC(=O)N2CCN(C)CC2)N(C(=O)/C=C/c2ccc(OC)c(N(C)C)c2)C[C@H]1CBr.Cl (some centres not stated): Not met

We next turn to a different compound, shown below.
# input Tell me whether pIC50 is at least 8 here: COC(=O)c1c(C)[nH]c2c1C1C(=CC2OC(=O)N2CCN(CC(=O)NC(C)C)CC2)N(C(=O)/C=C/c2ccc(OC)cc2)C[C@H]1CBr.Cl (some centres not stated)
# output Not met

====

Test system: HeLa
Assay: In vitro anticellular activity expressed as inhibitory concentration for the growth of HeLa S3 cells for a period of 72 hour
Assay type: functional, cell-based
Settings: Homo sapiens
Property Name: pIC50
Numbers only, as −log10 of the molar value.

Solved entries (count: 5):
- CCN(CC)c1cc(/C=C/C(=O)N2C[C@H]3C[C@@]34C2=CC(=O)c2[nH]c(C)c(C(=O)OC)c24)ccc1OC: 8.64
- C=CCOc1ccc(/C=C/C(=O)N2C[C@H]3C[C@@]34C2=CC(=O)c2[nH]c(C)c(C(=O)OC)c24)cc1: 8.12
- CCCCCOc1ccc(/C=C/C(=O)N2C[C@H]3C[C@@]34C2=CC(=O)c2[nH]c(C)c(C(=O)OC)c24)cc1: 7.30
- COC(=O)c1c(C)[nH]c2c1[C@@]13C[C@@H]1CN(C(=O)/C=C/c1ccc(OC)c(OCCCN(C)C)c1)C3=CC2=O: 8.80
- COC(=O)c1c(C)[nH]c2c1[C@@]13C[C@@H]1CN(C(=O)/C=C/c1ccc(OCc4ccc(OC)cc4)cc1)C3=CC2=O: 9.09

For each entry beneath this line, provide reported pIC50.
1. COC(=O)c1c(C)[nH]c2c1[C@@]13C[C@@H]1CN(C(=O)/C=C/c1ccc(NC(=O)OC(C)(C)C)cc1)C3=CC2=O
2. COC(=O)c1c(C)[nH]c2c1C1C(=CC2OC(=O)N2CCN(C)CC2)N(C(=O)/C=C/c2ccc(OC)c(OCCCN)c2)C[C@H]1CBr.Cl (some centres not stated)

# output
1: 9.25; 2: 7.52

Please give pIC50 for each item listed below.
1. COC(=O)c1c(C)[nH]c2c1C1C(=CC2OC(=O)N2CCN(C)CC2)N(C(=O)/C=C/c2ccc(OC)cc2)C[C@H]1CBr.Cl (some centres not stated)
2. COC(=O)c1c(C)[nH]c2c1[C@@]13C[C@@H]1CN(C(=O)/C=C/c1ccc(N(C)C)cc1)C3=CC2=O
3. CCc1ccc(/C=C/C(=O)N2C[C@H]3C[C@@]34C2=CC(=O)c2[nH]c(C)c(C(=O)OC)c24)cc1
4. COC(=O)c1c(C)[nH]c2c1[C@@]13C[C@@H]1CN(C(=O)/C=C/c1ccc(OC)c(OCCCN=[N+]=[N-])c1)C3=CC2=O
5. COC(=O)c1c(C)[nH]c2c1[C@@]13C[C@@H]1CN(C(=O)/C=C/c1ccc(OC)c(N)c1)C3=CC2=O

# output
[7.43, 8.80, 8.42, 9.13, 9.28]

For each of the compounds below, state pIC50.
1. COC(=O)c1c(C)[nH]c2c1[C@@]13C[C@@H]1CN(C(=O)/C=C/c1ccc(N)cc1)C3=CC2=O
2. CCN(CC)c1cc(/C=C/C(=O)N2C[C@@H](CBr)C3C2=CC(OC(=O)N2CCN(C)CC2)c2[nH]c(C)c(C(=O)OC)c23)ccc1OC.Cl (some centres not stated)

# output
1. 8.59
2. 6.55

Ref: ChEMBL document CHEMBL1130435
